Numbers sourced from patent US20210380703A1.

Each entry below carries its reported optical density.
Biological target: T1, mouse ACVR2A (mouse, UniProt P27038 20-135, limits assumed); also: test concentration or dose not given here
T1 construct: coated antigen of the initial ELISA
T1 sequence (P27038 20-135 limits assumed): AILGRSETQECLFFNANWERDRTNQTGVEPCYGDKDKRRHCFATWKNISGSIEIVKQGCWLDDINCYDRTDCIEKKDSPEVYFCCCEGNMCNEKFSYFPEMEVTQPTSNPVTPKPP
Assay: ELISA
Description: The binding of ACVR2A-specific monoclonal antibodies to human ACVR2A, mouse ACVR2A, biotinylated goat anti-human kappa light chain (positive control) and human Fc (negative control) were determined by ELISA.
The reply should be a number in OD, with the unit left off.

binder	unit	optical density
368_B09 (antibody, V domains shown, Group III) VH: EVQLLESGGGLVQPGGSLRLSCAASGFTFDSYGMNWVRQAPGKGLEWVSNINYNGGYKGYADSVKGRFTISRDNSKNTLYLQMNSLRAEDTAVYYCARGANWHDTHLDYWGQGTLVTVSS VL: DIQMTQSPSSLSASVGDRVTITCRASQSILSYLNWYQQKPGKAPKLLIYAATSRHSGVPSRFSGSGSGTDFTLTISSLQPEDFATYYCQQSYDTPLTFGGGTKVEIK	OD	2.81
374_B03 (antibody, V domains shown, Group III) VH: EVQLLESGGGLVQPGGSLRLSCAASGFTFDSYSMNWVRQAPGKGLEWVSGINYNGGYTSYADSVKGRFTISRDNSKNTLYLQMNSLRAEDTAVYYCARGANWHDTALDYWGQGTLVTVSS VL: DIQMTQSPSSLSASVGDRVTITCRASQSILTYLNWYQQKPGKAPKLVIYAATSRASGVPSRFSGSGSGTDFTLTISSLQPEDFATYYCQQSYDSPLTFGGGTKVEIK	OD	3.7

Exercise: Which optical density reading was recorded for the binder 374_B05 (antibody, V domains shown, Group III) VH: EVQLLESGGGLVQPGGSLRLSCAASGFTFDSYSMNWVRQAPGKGLEWVSGINYNSGYTSYADSVKGRFTISRDNSKNTLYLQMNSLRAEDTAVYYCARGANWHDTALDYWGQGTLVTVSS VL: DIQMTQSPSSLSASVGDRVTITCRASQSIVSYLNWYQQKPGKAPKLLIYAATSRHSGVPSRFSGSGSGTDFTLTISSLQPEDFATYYCQQSYESPLTFGGGTKVEIK ?
Key: 3.65

Exercise: What optical density value was documented for this binder, 371_B04 (antibody, V domains shown, Group III) VH: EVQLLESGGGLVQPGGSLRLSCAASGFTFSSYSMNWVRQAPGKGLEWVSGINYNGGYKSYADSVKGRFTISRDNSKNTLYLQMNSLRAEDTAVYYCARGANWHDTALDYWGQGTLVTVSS VL: DIQMTQSPSSLSASVGDRVTITCRASQSILSYLNWYQQKPGKAPKLVIYAVTSRHSGVPSRFSGSGSGTDFTLTISSLQPEDFATYYCQQSYDSPLTFGGGTKVEIK ?
Key: 3.13
